B1: library; numbered along this chain (parent)
chain: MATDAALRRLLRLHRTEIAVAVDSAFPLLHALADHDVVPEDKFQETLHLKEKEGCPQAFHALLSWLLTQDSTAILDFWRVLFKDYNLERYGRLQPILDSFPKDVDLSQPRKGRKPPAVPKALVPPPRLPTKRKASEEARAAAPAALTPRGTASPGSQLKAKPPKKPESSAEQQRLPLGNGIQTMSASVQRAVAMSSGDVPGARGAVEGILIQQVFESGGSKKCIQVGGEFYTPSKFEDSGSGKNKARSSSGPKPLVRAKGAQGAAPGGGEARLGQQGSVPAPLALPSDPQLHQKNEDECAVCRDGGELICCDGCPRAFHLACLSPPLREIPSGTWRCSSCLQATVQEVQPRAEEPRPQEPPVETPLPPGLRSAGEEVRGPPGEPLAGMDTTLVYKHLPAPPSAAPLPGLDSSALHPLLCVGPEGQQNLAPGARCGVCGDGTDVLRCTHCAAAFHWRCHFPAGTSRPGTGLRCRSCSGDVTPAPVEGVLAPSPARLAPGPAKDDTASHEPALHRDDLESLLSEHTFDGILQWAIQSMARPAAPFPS

# Variants of: B1
# ASSAY_SUMMARY: AIRE transcriptional activation functional score (insulin promoter-GFP; nonsense median 0, synonymous median 1) (normalised score); higher = higher AIRE activity (more reporter activation)
# CONDITION_NOTES: with insulin promoter-GFP reporter in HEK293
QUANTITY_KIND: AIRE transcriptional activation functional score

Input: Would you mind telling me what AIRE transcriptional activation functional score value was observed for I224G ?
Output: 0.296

Input: What value of AIRE transcriptional activation functional score has been reported for the following variant? L87Q
Output: 0.462

Input: What AIRE transcriptional activation functional score value was documented for this variant, R471T ?
Output: 0.747

Input: What measured AIRE transcriptional activation functional score goes with D503A ?
Output: 0.958

Input: // query AIRE transcriptional activation functional score value for entry L397Q
Output: 1.36

Now look at this one.
Input: Field request: AIRE transcriptional activation functional score | item: P350T
Output: 0.866
